# target_desc: human recombinant dopamine D2 receptor (Homo sapiens (Human), UniProt P14416)
# Sequence (P14416 whole entry): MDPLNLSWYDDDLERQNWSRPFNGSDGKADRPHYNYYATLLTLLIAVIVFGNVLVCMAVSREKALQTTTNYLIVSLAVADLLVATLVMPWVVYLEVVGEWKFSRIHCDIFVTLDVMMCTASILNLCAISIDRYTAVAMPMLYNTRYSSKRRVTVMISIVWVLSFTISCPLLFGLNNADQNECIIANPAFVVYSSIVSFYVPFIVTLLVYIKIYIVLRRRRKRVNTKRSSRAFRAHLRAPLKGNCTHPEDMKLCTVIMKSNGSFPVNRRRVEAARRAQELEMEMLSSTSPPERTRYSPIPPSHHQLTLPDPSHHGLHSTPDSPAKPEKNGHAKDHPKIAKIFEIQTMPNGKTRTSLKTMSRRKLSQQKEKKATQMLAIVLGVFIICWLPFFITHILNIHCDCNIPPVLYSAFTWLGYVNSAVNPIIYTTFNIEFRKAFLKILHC
# measurement_description: Test of binding inhibition for the human dopamine D2 receptor (SPA, [3H]-Metylspiperone)
# condition: Jump-In HEK cell membranes, 1.2 nM [3H]-Metylspiperone, 120 min at 25° C.; read-out: hD2_Ki
# Protocol: Test Example 1: Test of Binding Inhibition for the Human Dopamine D2 Receptor Cell membranes: Jump-In HEK cell membranes expressing human recombinant dopamine D2 receptor (2 μg/well) […] 225 nL of the solutions of the non-specific ligand or the compounds of the present invention at each concentration (in case of vehicle, final concentration 0.3% DMSO) were added in each well of a 384-well white/clear bottom microplate (3706, Corning). […] The Ki values were calculated from dose-response curves. […]
measurement_label: Ki (µM)
Answer with a number only, understood to be in µM.

Cc1ncc(CC(=O)N[C@H]2CC[C@H](CCN3CCc4cc(C)c(OCC(F)F)nc4CC3)CC2)s1 = 0.48
COc1cc(CCC(=O)N[C@H]2CC[C@H](CCN3CCc4ccc(OCC(F)F)nc4CC3)CC2)on1 = 0.29

Q: Sample `Cc1cc(CC(=O)N[C@H]2CC[C@H](CCN3CCc4sc(N5CC(F)(F)C5)nc4C3)CC2)on1` — what was its Ki?
Result: 1.6
